Test: Novel Modifiers of Survival Motor Neuron (SMN) Protein: Gene Identification via Genome-wide siRNA Screen;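 also: luminescence tracks full-length SMN protein made from the SMN2 reporter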
Details: HEK293T SMN2-luciferase reporter, siRNA knockdown, 72 h; actives lie on both sides
The campaign covered roughly 31,000 sequences. About 1,400 (4.5%) were called active.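 The calls were made as follows: active = median seed-adjusted z-score above 1 or below -1; inactive = the rest.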 Only a selection was taken, and actives are over-represented in it overall.
Outcomes: Y for active, N for inactive

residue_sequence="AGAGGUUUGGCAGAAAUACTT against NPFF" assigned_label=N
residue_sequence="CCUUCAAUCACCGACCUUATT against SYNJ2" assigned_label=N
residue_sequence="GCCCUUACAGGGUAUCAAATT against DDX46" assigned_label=Y
residue_sequence="GGUACAAAGCAAUCGGACATT against GUCA2B" assigned_label=N
residue_sequence="GCAUGAGGUUCACCACCAATT against FIBCD1" assigned_label=N
residue_sequence="GGAAGAGUCAUACAUCAAUTT against DDX55" assigned_label=N
